Target: AgBbc1
Test: SPOT peptide array binding signal intensity (averaged, normalized) (arbitrary units (background-subtracted, floor 0; scale differs between SH3 domains)); higher = stronger binding of the SH3 domain to the peptide
# maps each entry to its SPOT peptide array binding signal intensity
Lab note: record just the number, no unit beside it.

In the examples that follow, each entry is paired with its recorded SPOT peptide array binding signal intensity.
[[record]]
binder = "NPLPKEPRLPKRKVA"
value_observed = 254

[[record]]
binder = "PLQSKIPMLPSRRTM"
value_observed = 267

[[record]]
binder = "RSRRSSFAYPQQVAI"
value_observed = 64

[[record]]
binder = "QGYPRQPQRPQRYHP"
value_observed = 187

[[record]]
binder = "NTMKKRPAPPSLPSL"
value_observed = 21


query: Using the record for `LYEAMPPTLPHRDWK` , report its SPOT peptide array binding signal intensity.
result: 2.5

query: Using the record for `PSTMDFPKLPSFQNS` , report its SPOT peptide array binding signal intensity.
result: 10.5

query: Using the record for `NIKVLLNPKLGKPVK` , report its SPOT peptide array binding signal intensity.
result: 10.2

query: Using the record for `QFDLKMPSKPIHNLK` , report its SPOT peptide array binding signal intensity.
result: 0.5

query: Using the record for `IKTRSVPKIPSIESV` , report its SPOT peptide array binding signal intensity.
result: 78.8

query: Using the record for `SLSRRRFSLPSMPNV` , report its SPOT peptide array binding signal intensity.
result: 114

All figures here come from the supplement of paper PMC4466140.
